Hello, the source for this data is ChEMBL document CHEMBL4834441, in case you need it.

# testDetails: Toxicity in Galleria mellonella larvae assessed as survival at 128 ug/ml measured after 24 hrs relative to control
# assaySetup: at 128 µg/mL
testReadout: survival at 24 h (%)
// note: answer is a bare numeric in %

Problem: Look up survival at 24 h of Cc1c(O)c(=O)ccn1CCCCc1ccccc1.Cl and report it.
Solution: 100

====

# testDetails: Toxicity in Galleria mellonella larvae assessed as survival at 32 ug/ml measured after 24 hrs relative to control
# assaySetup: at 32 µg/mL
testReadout: survival at 24 h (%)
Quick reminder: number only, in %, skip the unit.

Problem: Dear colleague, please send me the reported survival at 24 h for Cc1c(O)c(=O)ccn1CCCCc1ccccc1.Cl when you can.
Solution: 100
